- Test system: Acinetobacter baumannii
- test method notes: Potentiation of colistin-induced antimicrobial activity against colistin-resistant Acinetobacter baumannii isolate 3942 assessed as fold reduction in colistin MIC at 60 uM after 18 hrs by broth microdilution assay
- Assay type: functional
readout name: fold change (FC)

>>> value_reported("Cc1cccc2c(CCNC(=O)c3cc(Br)c(Br)[nH]3)c[nH]c12")
256
>>> value_reported("O=C(NCc1ccc2cc[nH]c2c1)c1cc(Br)c(Br)[nH]1")
128
>>> value_reported("O=C(NCc1cc2ccccc2[nH]1)c1cc(Br)c(Br)[nH]1")
256
>>> value_reported("O=C(NCCc1c[nH]c2ccccc12)c1cc(I)c[nH]1")
32
>>> value_reported("O=C(NCCc1c[nH]c2ccccc12)c1cc(Br)c(Br)[nH]1")
512
>>> value_reported("O=C(NCCc1c[nH]c2cc(F)ccc12)c1cc(Br)c(Br)[nH]1")
512

---

- System: Acinetobacter baumannii
- test method notes: Potentiation of colistin-induced antimicrobial activity against colistin-resistant Acinetobacter baumannii ATCC 17978 expressing mcr1 gene assessed as fold reduction in colistin MIC at 60 uM after 18 hrs by broth microdilution assay
- Type: functional
Each entry below carries its recorded fold change (FC).
readout name: fold change (FC)

>>> value_reported("O=C(NCCc1c[nH]c2ccc(O)cc12)c1cc(Br)c(Br)[nH]1")
4
>>> value_reported("O=C(NCCc1c[nH]c2ccccc12)c1cc(Cl)c(Cl)[nH]1")
32
>>> value_reported("O=C(NCc1ccccc1)c1cc(Br)c(Br)[nH]1")
0
>>> value_reported("O=C(NCCc1cn(Cc2ccccc2)c2ccccc12)c1cc(Br)c(Br)[nH]1")
0
>>> value_reported("O=C(NCCc1c[nH]cn1)c1cc(Br)c(Br)[nH]1")
0
>>> value_reported("O=C(NCc1cc2ccccc2[nH]1)c1cc(Br)c(Br)[nH]1")
32
>>> value_reported("CCCCn1cc(CCNC(=O)c2cc(Br)c(Br)[nH]2)c2ccccc21")
0
>>> value_reported("O=C(NCCc1c[nH]c2cc(F)ccc12)c1cc(Br)c(Br)[nH]1")
32
>>> value_reported("Cn1c(C(=O)NCCc2c[nH]c3ccccc23)cc(Br)c1Br")
16
>>> value_reported("O=C(NCCc1c[nH]c2ccccc12)c1cc(Cl)c[nH]1")
2
>>> value_reported("Cc1cccc2c(CCNC(=O)c3cc(Br)c(Br)[nH]3)c[nH]c12")
32
>>> value_reported("O=C(NCc1c[nH]c2ccccc12)c1cc(I)c(I)[nH]1")
0
>>> value_reported("O=C(NCCc1c[nH]c2ccccc12)c1ccc(Br)c(Br)n1")
0

---

Entries and their fold change (FC)
- Tested on: Acinetobacter baumannii
- test method notes: Potentiation of colistin-induced antimicrobial activity against colistin-resistant Acinetobacter baumannii isolate 4112 assessed as fold reduction in colistin MIC at 60 uM after 18 hrs by broth microdilution assay
- Assay type: functional
readout name: fold change (FC)

>>> value_reported("O=C(NCCCc1c[nH]c2ccccc12)c1cc(Br)c(Br)[nH]1")
256
>>> value_reported("Cc1cccc2c(CCNC(=O)c3cc(Br)c(Br)[nH]3)c[nH]c12")
256
>>> value_reported("O=C(NCc1cc2ccccc2[nH]1)c1cc(Br)c(Br)[nH]1")
512
>>> value_reported("O=C(NCCc1c[nH]c2ccccc12)c1cc(I)c[nH]1")
32
